Overview of recorded 5-HT1A Function Emax (maximum stimulatory effect) for various compounds
target: cloned human 5-HT1A receptors (Homo sapiens, UniProt P08908); construct: expressed in transfected cells; experiment: 35S-GTPγS binding assay, agonist activity at 5-HT1A receptors; format: biochemical; conditions: membranes containing cloned human 5-HT1A receptors, value in parentheses, in % (unit assumed)
Sequence (P08908 whole entry): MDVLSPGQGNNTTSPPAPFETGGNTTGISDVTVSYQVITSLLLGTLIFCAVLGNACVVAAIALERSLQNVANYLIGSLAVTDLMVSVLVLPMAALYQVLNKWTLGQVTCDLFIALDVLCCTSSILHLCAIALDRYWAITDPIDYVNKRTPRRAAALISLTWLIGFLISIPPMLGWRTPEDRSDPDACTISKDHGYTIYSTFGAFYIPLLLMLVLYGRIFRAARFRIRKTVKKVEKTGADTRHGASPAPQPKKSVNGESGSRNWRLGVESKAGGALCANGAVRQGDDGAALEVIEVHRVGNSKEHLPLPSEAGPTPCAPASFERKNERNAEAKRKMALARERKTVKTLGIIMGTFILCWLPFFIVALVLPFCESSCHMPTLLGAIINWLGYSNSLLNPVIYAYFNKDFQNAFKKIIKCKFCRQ
Measured quantity: 5-HT1A Function Emax (maximum stimulatory effect)

1. Fc1ccc2[nH]cc(CCCNC3COc4c(ccc5ncccc45)C3)c2c1 (single isomer, unassigned; (+)) [Compound 7a]
74.80
2. Fc1ccc2[nH]cc(CCCNC3COc4ccc5ncccc5c4C3)c2c1 (single isomer, unassigned; (-))
85.87
3. CCCN(CCCc1c[nH]c2ccc(F)cc12)C1COc2ccc3ncccc3c2C1 (single isomer, unassigned; (+)) [Compound 4]
99.92
4. CCCN(CCCc1c[nH]c2ccc(F)cc12)C1COc2ccc3ncccc3c2C1 (single isomer, unassigned; (-)) [Compound 3]
54.72
5. Fc1ccc2[nH]cc(CCCNC3COc4c(ccc5ncccc45)C3)c2c1 (single isomer, unassigned; (-)) [Compound 7b]
100

---

Counter-ions that a name gives are not always drawn.
Measured quantity: melting point

1. Fc1ccc2[nH]cc(CCCNC3COc4ccc5ncccc5c4C3)c2c1 (stereo not shown) (as salt: hydrochloride) [Compound 1]
> 180 °C
2. Fc1ccc2[nH]cc(CCNC3COc4ccc5ncccc5c4C3)c2c1 (stereo not shown) (as salt: hydrochloride) [Compound 5]
91 °C (dec.)
3. CCCN(CCCCc1c[nH]c2ccc(F)cc12)C1COc2c(ccc3ncccc23)C1 (stereo not shown) (as salt: hydrochloride) [Compound 10]
164 °C (dec.)
4. Fc1ccc2[nH]cc(CCCCNC3COc4c(ccc5ncccc45)C3)c2c1 (stereo not shown) (as salt: hydrochloride) [Compound 9]
173 °C (dec.)

---

molecular target: UniProt P08908; assay: 35S-GTPγS binding assay, agonist activity at 5-HT1A receptors; details: membranes containing cloned human 5-HT1A receptors, read-out: 5-HT1A Function EC50
Measured quantity: EC50 (nM)

1) Fc1ccc2[nH]cc(CCCNC3COc4c(ccc5ncccc45)C3)c2c1 (single isomer, unassigned; (+)) [Compound 7a]
320
2) Fc1ccc2[nH]cc(CCCNC3COc4ccc5ncccc5c4C3)c2c1 (single isomer, unassigned; (+)) [Compound 1a]
730
3) CCCN(CCCc1c[nH]c2ccc(F)cc12)C1COc2ccc3ncccc3c2C1 (single isomer, unassigned; (+)) [Compound 4]
300
4) CCCN(CCCc1c[nH]c2ccc(F)cc12)C1COc2ccc3ncccc3c2C1 (stereo not shown) [Compound 2]
2220

Source of measurements: patent US7227023B2
